- TESTED_SYSTEM: human mGluR4 (Homo sapiens (Human), UniProt Q14833)
- Sequence (Q14833 33-912): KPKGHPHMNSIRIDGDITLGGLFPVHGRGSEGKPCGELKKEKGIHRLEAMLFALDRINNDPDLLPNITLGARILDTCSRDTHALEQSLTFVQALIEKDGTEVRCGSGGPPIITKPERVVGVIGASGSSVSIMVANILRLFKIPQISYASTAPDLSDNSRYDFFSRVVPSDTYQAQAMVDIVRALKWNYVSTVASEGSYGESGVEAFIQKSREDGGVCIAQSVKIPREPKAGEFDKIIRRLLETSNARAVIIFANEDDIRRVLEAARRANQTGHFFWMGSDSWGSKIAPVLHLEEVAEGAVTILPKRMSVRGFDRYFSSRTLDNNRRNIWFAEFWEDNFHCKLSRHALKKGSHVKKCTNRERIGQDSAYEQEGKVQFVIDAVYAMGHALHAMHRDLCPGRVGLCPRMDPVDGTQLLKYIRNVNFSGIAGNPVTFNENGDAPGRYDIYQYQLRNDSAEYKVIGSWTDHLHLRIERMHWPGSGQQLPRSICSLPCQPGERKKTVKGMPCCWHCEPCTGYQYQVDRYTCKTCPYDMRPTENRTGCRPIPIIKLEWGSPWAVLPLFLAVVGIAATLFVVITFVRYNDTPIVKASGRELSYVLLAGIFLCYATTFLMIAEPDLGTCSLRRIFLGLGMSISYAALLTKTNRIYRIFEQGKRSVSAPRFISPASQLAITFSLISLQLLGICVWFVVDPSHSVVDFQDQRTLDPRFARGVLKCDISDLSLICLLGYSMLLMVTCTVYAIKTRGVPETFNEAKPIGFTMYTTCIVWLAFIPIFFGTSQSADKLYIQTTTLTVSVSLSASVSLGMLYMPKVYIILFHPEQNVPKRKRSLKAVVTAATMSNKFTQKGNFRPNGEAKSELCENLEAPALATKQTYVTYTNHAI
- ASSAY_PROTOCOL: mGluR4 potentiation assay, CHO cells transfected with human mGluR4, Ca2+-sensitive dye, EC20 agonist
- Assay type: cell-based
- CONDITION_DETAILS: potentiation of mGluR4; summary list repeated at the end of the table; species not stated
pEC50: −log10 of the molar value.
Heads up, the class ranges for pEC50 are low band = under 6, middle band = from 6 up to 7, high band = 7 and over

CCC(C)c1nsc2cc(Nc3n[nH]c4cccnc34)cnc12 (stereo not drawn) [Example 40] : high band
O=C(c1nsc2cc(Nc3n[nH]c4cccnc34)ccc12)N1CCCC1c1ccccn1 (stereo not drawn) [Example 11] : low band
c1ccc(-c2nsc3cc(Nc4n[nH]c5ncccc45)ccc23)cc1 [Example 44] : low band
CC1CC(C)CN(C(=O)c2nsc3cc(Nc4n[nH]c5cccnc45)ccc23)C1 (stereo not drawn) [Example 18] : middle band
FC1(F)CCCN(Cc2nsc3cc(Nc4n[nH]c5cccnc45)cnc23)C1 [Example 61] : high band

Hey, which category is O=C(NC1CC(F)(F)C1)c1nsc2cc(Nc3n[nH]c4nccnc34)ccc12 [Example 30] in, do you know?
high band

What about CC1CN(C(=O)c2nsc3cc(Nc4n[nH]c5cccnc45)ccc23)CC(C)O1 (stereo not drawn) [Example 7] ?
middle band

Next compound up: O=C(c1nsc2cc(Nc3n[nH]c4cccnc34)ccc12)N1CCN2CCCC2C1 (stereo not drawn) [Example 13]
low band

FC1CCN(Cc2nsc3cc(Nc4n[nH]c5cccnc45)cnc23)CC1 [Example 51] , same question.
middle band

Same lookup for C[C@H]1CN(Cc2nsc3cc(Nc4n[nH]c5cccnc45)cnc23)CCO1 [Example 59] , please.
middle band

====

- TESTED_SYSTEM: human mGluR4 (Homo sapiens (Human), UniProt Q14833)
- ASSAY_PROTOCOL: mGluR4 potentiation assay, CHO cells transfected with human mGluR4, Ca2+-sensitive dye, EC20 agonist
- Type: cell-based
- CONDITION_DETAILS: potentiation of mGluR4; summary list repeated at the end of the table; species not stated
Would you mind telling me the reported pEC50 of each entry?
Give bare numbers, as −log10 of the molar value.

CC1(C)CN(Cc2nsc3cc(Nc4n[nH]c5cccnc45)cnc23)CCO1 : 6.83
CN(Cc1nsc2cc(Nc3n[nH]c4cccnc34)cnc12)C1CC(F)(F)C1 : 6.48
Cc1nsc2cc(Nc3n[nH]c4ncccc34)cnc12 : 6.74
FC1(F)CCN(Cc2nsc3cc(Nc4n[nH]c5cccnc45)cnc23)CC1 : 7.09

Below: the item to evaluate.
Item `Cc1nsc2ccc(Nc3n[nH]c4cccnc34)cc12` has what recorded pEC50?
6.73

====

- TESTED_SYSTEM: human mGluR4 (Homo sapiens (Human))
- ASSAY_PROTOCOL: mGluR4 potentiation assay, CHO cells transfected with human mGluR4, Ca2+-sensitive dye, EC20 agonist
- Type: cell-based
- CONDITION_DETAILS: potentiation of mGluR4; summary list repeated at the end of the table; species not stated
Field: pEC50. Provide a value for each of the compounds that follow.
One number for each entry, as −log10 of the molar value.

c1cnc2c(Nc3ccc4c(-c5ccsc5)nsc4c3)n[nH]c2n1 : 6.84
CC(=O)N1CCC(c2nsc3cc(Nc4n[nH]c5cccnc45)ccc23)CC1 : 6.70
c1cnc2c(Nc3cnc4c(CN5CCOCC5)nsc4c3)n[nH]c2c1 : 6.20
O=C(c1nsc2cc(Nc3n[nH]c4cccnc34)ccc12)N1CCC(F)CC1 : 6.60
CC(C)(C)C1CCN(Cc2nsc3cc(Nc4n[nH]c5ncccc45)cnc23)CC1 : 5.38

Fill in pEC50 for each of the 4 compounds listed.
1. c1cnc2c(Nc3ccc4c(C5CC5)nsc4c3)n[nH]c2c1
2. O=C(c1nsc2cc(Nc3n[nH]c4cccnc34)ccc12)N1CCS(=O)(=O)CC1
3. O=C(c1nsc2cc(Nc3n[nH]c4cccnc34)ccc12)N1CCCOCC1
4. CCCc1nsc2cc(Nc3n[nH]c4cccnc34)ccc12

1: 7.11; 2: 6.87; 3: 6.22; 4: 7.25

====

Please respond with reported EC50 for every item in the list.
- TESTED_SYSTEM: human mGluR4 (Homo sapiens (Human))
- ASSAY_PROTOCOL: mGluR4 potentiation assay, CHO cells transfected with human mGluR4, Ca2+-sensitive dye, EC20 agonist
- Assay type: cell-based
- CONDITION_DETAILS: potentiation of mGluR4; main compound table; species not given
Give bare numbers, in nM.

FC1(F)CCN(Cc2nsc3cc(Nc4n[nH]c5cccnc45)cnc23)CC1 : 81.1
O=C(c1nsc2cc(Nc3n[nH]c4cccnc34)ccc12)N1CCS(=O)(=O)CC1 : 136
CCCc1nsc2cc(Nc3n[nH]c4nccnc34)ccc12 : 23.4
OCc1nsc2cc(Nc3n[nH]c4cccnc34)cnc12 : 1060
CC(C)(C)Cc1nsc2cc(Nc3n[nH]c4ncccc34)cnc12 : 119
Cc1nsc2cc(Nc3n[nH]c4ncccc34)cnc12 : 180

Provide EC50 for all items below, preserving their order.
1. CC(=O)N1CCC(c2nsc3cc(Nc4n[nH]c5cccnc45)ccc23)CC1
2. c1cnc2c(Nc3cnc4c(CN5CCCC5)nsc4c3)n[nH]c2c1
3. O=C(c1nsc2cc(Nc3n[nH]c4cccnc34)ccc12)N1CCOCC1
4. O=C(c1nsc2cc(Nc3n[nH]c4cccnc34)ccc12)N1CCCC1

199
3740
303
1340

Quick batch: EC50 for everything below.
1. O=C(c1nsc2cc(Nc3n[nH]c4cccnc34)ccc12)N1CCC(F)CC1
2. CCc1nsc2cc(Nc3n[nH]c4cccnc34)cnc12
3. CCc1nsc2cc(Nc3n[nH]c4ncccc34)cnc12
4. CC(C)(C)Cc1nsc2cc(Nc3n[nH]c4nccnc34)cnc12
5. CC(=O)N1CCC(c2nsc3cc(Nc4n[nH]c5nccnc45)ccc23)CC1
6. CC(C)(O)c1nsc2cc(Nc3n[nH]c4cccnc34)ccc12
7. CC(=O)N1CCC(c2nsc3cc(Nc4n[nH]c5ncccc45)ccc23)CC1
8. O=C(c1nsc2cc(Nc3n[nH]c4cccnc34)ccc12)N1CCC(N2CCOCC2)C1 (stereo not shown)

1: 249; 2: 38.3; 3: 100; 4: 99.5; 5: 154; 6: 1030; 7: 409; 8: 3450

Can you share its EC50? I mean this compound: `CCCc1nsc2cc(Nc3n[nH]c4ncccc34)ccc12`
220

====

Assign pEC50 to each entry below.
- TESTED_SYSTEM: human mGluR4 (Homo sapiens (Human), UniProt Q14833)
- ASSAY_PROTOCOL: mGluR4 potentiation assay, CHO cells transfected with human mGluR4, Ca2+-sensitive dye, EC20 agonist
- Assay type: cell-based
- CONDITION_DETAILS: potentiation of mGluR4; summary list repeated at the end of the table; species not stated
Give bare numbers, as −log10 of the molar value.

Previously resolved entries follow.
c1cnc2c(Nc3ccc4c(C5CC5)nsc4c3)n[nH]c2n1 [Example 37] : 7.21
CN(Cc1nsc2cc(Nc3n[nH]c4ncccc34)cnc12)C1CC(F)(F)C1 [Example 53] : 6.25
OCc1nsc2cc(Nc3n[nH]c4cccnc34)cnc12 [Example 47] : 5.97

Please look at the items below and tell me pEC50 for each one, in order.
1. CC(C)(C)c1nsc2cc(Nc3n[nH]c4cccnc34)ccc12 [Example 25]
2. O=C(NC1CC(F)(F)C1)c1nsc2cc(Nc3n[nH]c4cccnc34)ccc12 [Example 4]
3. O=C(c1nsc2cc(Nc3n[nH]c4cccnc34)ccc12)N1CCSCC1 [Example 16]
4. O=C(c1nsc2cc(Nc3n[nH]c4cccnc34)ccc12)N1CCCC1 [Example 10]
5. CC(C)(C)Cc1nsc2cc(Nc3n[nH]c4cccnc34)ccc12 [Example 2]

1. 6.48
2. 7.49
3. 7.07
4. 5.87
5. 6.55

Hi there! I need pEC50 for each item below, if you can.
1. CC(=O)N1CCC(c2nsc3cc(Nc4n[nH]c5ncccc45)ccc23)CC1 [Example 64]
2. CC(C)(C)Cc1nsc2cc(Nc3n[nH]c4nccnc34)cnc12 [Example 27]
3. O=C(c1nsc2cc(Nc3n[nH]c4cccnc34)ccc12)N1CCC(N2CCOCC2)C1 (stereo not shown) [Example 14]
4. CCCc1nsc2cc(Nc3n[nH]c4ncccc34)ccc12 [Example 26]

[6.39, 7.00, 5.46, 6.66]

====

- TESTED_SYSTEM: human mGluR4 (Homo sapiens (Human), UniProt Q14833)
- ASSAY_PROTOCOL: mGluR4 potentiation assay, CHO cells transfected with human mGluR4, Ca2+-sensitive dye, EC20 agonist
- Type: cell-based
- CONDITION_DETAILS: potentiation of mGluR4; main compound table; species not given
Field: pEC50. Provide a value for each of the molecules that follow.
One number for each entry, as −log10 of the molar value.

CC(C)(C)C1CCN(Cc2nsc3cc(Nc4n[nH]c5cccnc45)cnc23)CC1 : 5.86
Cc1nsc2cc(Nc3n[nH]c4cccnc34)cnc12 : 6.80
CC(C)(C)Cc1nsc2cc(Nc3n[nH]c4ncccc34)ccc12 : 6.05
CC1CCN(C(=O)c2nsc3cc(Nc4n[nH]c5cccnc45)ccc23)CC1 : 6.39
CN(Cc1nsc2cc(Nc3n[nH]c4ncccc34)cnc12)C1CC(F)(F)C1 : 6.25

Please supply pEC50 for each of the following items, keeping them in order.
1. CN(C(=O)c1nsc2cc(Nc3n[nH]c4cccnc34)ccc12)C1CC(F)(F)C1
2. c1cnc2c(Nc3ccc4c(-c5ccsc5)nsc4c3)n[nH]c2n1
3. O=C(c1nsc2cc(Nc3n[nH]c4cccnc34)ccc12)N1CCC(F)(F)CC1

6.79
6.84
7.22

Origin of measurements: patent US10221172B2
